Biological target: T1, MPDZ_12, O75970
T1 sequence (O75970 1857-1958, limits assumed, looked up): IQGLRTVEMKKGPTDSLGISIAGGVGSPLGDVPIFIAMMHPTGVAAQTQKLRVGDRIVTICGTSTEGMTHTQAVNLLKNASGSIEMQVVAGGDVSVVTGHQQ
Assay: holdup assay
Set-up: key: below the threshold = too weak to quantify, mostly under pKd 3.1 to 4
Conditions: plain residues with an end cap or a label only (N-terminal biotin on a linker: ado-ado)
Observed property: pKd

>>> value_measured("KSRPENGTVC [TMEM178B, H3BS89]")
"below the threshold"
>>> value_measured("LVEEEEPMNL [HDAC7, Q8WUI4]")
"below the threshold"
>>> value_measured("GDSSRKEYFI [GYPC, P04921]")
3.5
>>> value_measured("GNDPDRGTSI [GRID2, O43424]")
"below the threshold"
>>> value_measured("WAKEKQHTRL [SLC17A1, Q14916]")
"below the threshold"
>>> value_measured("GTMFLRETSL [GUCY1A2, P33402]")
"below the threshold"
>>> value_measured("HYPASPDSWV [CTNND2, Q9UQB3]")
4.65

// next item, pKd requested
Fill blank: measured pKd of the binder QLKSGRDSTV [TMEM178A, Q8NBL3] is ____. below the threshold
